pIC50: −log10 of the molar value.
These records show pIC50 for DDR1 (Homo sapiens).

| Compound structure | pIC50 |
| --- | --- |
| O=c1ccnc2sc(-c3ccnc(Nc4cccc(N5CCN(CCO)CC5)c4)n3)c(-c3ccc(F)cc3)n12 | 8.19 |
| CN1CCN(c2ccc(Nc3nccc(-c4sc5nccc(=O)n5c4-c4cccc(O)c4)n3)cc2)CC1 | 8.25 |
| CN1CCN(c2ccc(Nc3nccc(-c4sc5nccc(=O)n5c4-c4ccccc4Cl)n3)cc2)CC1 | 8.15 |
| O=c1ccnc2sc(-c3ccnc(Nc4cccc(N5CCN(CCO)CC5)c4)n3)c(-c3cccc(Cl)c3)n12 | 8.20 |
| Cc1nc2sc(-c3ccnc(Nc4cccc(N5CCN(CCO)CC5)c4)n3)c(-c3ccccc3)n2c(=O)c1C | 7.82 |
| O=c1ccnc2sc(-c3ccnc(Nc4cccc(N5CCN(CCO)CC5)c4)n3)c(C3CC3)n12 | 6.93 |
| CN1CCN(c2ccc(Nc3nccc(-c4sc5nccc(=O)n5c4-c4ccccc4)n3)cc2)CC1 | 7.87 |
